- Test system: human platelets in platelet-rich plasma
- Assay Comment: Platelet aggregation inhibition assay (ADP-induced, platelet-rich plasma)
- Type: cell-based
- Conditions: fresh human platelet-rich plasma, aggregation induced by ADP 10 to 15 micromolar; read-out: IC50 (concentration of reagent that inhibits by 50% the aggregation of human platelets)

Substance	IC50 / µM
GRDGVRGDFCAcm GCAcm amide [Peptide P98]	15
